Tested on: human growth hormone (532) promoter
ASSAY EXPLANATION: High-throughput luciferase reporter assay, human Growth Hormone promoter (Screen III)
Format: cell-based
STATED CONDITIONS: Screen III inhibitors; 532 cells; 6 hours
METRIC: FOLD INHIBITION RELATIVE TO SOLVENT CONTROL, hGH (fold)

>>> print(df.to_string())
                                   compound  measured_result
0             CC1(C)[C@H]2CC[C@]1(C)C(=O)C2             4.76
1  Nc1c(O)c(S(=O)(=O)O)c(O)c2c1C(=O)c1ccccc1C2=O             5.00
2                             Cc1n[nH]cc1Br             0.65
3          O=C(O)c1cc(C(F)(F)F)ccc1C(F)(F)F             4.76

---

Tested on: human growth hormone (532) promoter
ASSAY EXPLANATION: High-throughput luciferase reporter assay, human Growth Hormone promoter (Screen III)
Format: cell-based
STATED CONDITIONS: Screen III inhibitors; 532 cells; 6 hours
// label = true if FOLD INHIBITION RELATIVE TO SOLVENT CONTROL, hGH is not less than 9 fold, otherwise false

>>> print(df.to_string())
                                   molecule                        system_tested  category
0                           N#Cc1cccc(Br)c1  human growth hormone (532) promoter      true
1        NCCC(=O)N[C@@H](Cc1cnc[nH]1)C(=O)O  human growth hormone (532) promoter      true
2  Cc1c(C(=O)O)c(O)cc2c1C(=O)c1c(O)c([C@@H]3O[C@H](CO)[C@@H](O)[C@H](O)[C@H]3O)c(O)c(O)c1C2=O [compound 240]  human growth hormone (532) promoter     false
3  Nc1nc2c(nc(Br)n2[C@@H]2O[C@H](CO)[C@@H](O)[C@H]2O)c(=O)[nH]1  human growth hormone (532) promoter     false
4                        CCCCCCCCCCCCCCCCBr  human growth hormone (532) promoter     false
5             Cc1cc(=O)oc2cc(OCC(=O)O)ccc12  human growth hormone (532) promoter     false

---

Test system: MMTV (M10) promoter
ASSAY EXPLANATION: High-throughput luciferase reporter assay, MMTV promoter (Screen III)
Type: cell-based, mouse
STATED CONDITIONS: Screen III activators; M10 cells; 6 hours
Reported values of FOLD INDUCTION RELATIVE TO SOLVENT CONTROL, MMTV for individual entries
METRIC: FOLD INDUCTION RELATIVE TO SOLVENT CONTROL, MMTV

                                    compound  measured_result
 0  OCC1CC2C3CC(CO)C(C3)C2C1 (stereo not drawn) [compound 1678]        0.89 fold
 1  Nc1ccc(S(=O)(=O)O)c2cccc(O)c12 [compound 1337]        0.23 fold
 2  CC(=O)OCC(=O)[C@@]1(O)CC[C@H]2[C@@H]3CCC4=CC(=O)C=C[C@]4(C)[C@H]3[C@@H](O)C[C@@]21C [compound 765]        2.66 fold
 3      CC(C)(C)c1ccc(Br)cc1 [compound 2001]        1.12 fold
 4            CC(=O)c1ccc[nH]1 [compound 70]        0.85 fold
 5    Brc1ccc2c3c(cccc13)CC2 [compound 1573]        4.30 fold
 6  CN(C)c1ccc(C(=C2C=CC(=[N+](C)C)C=C2)c2ccc([N+](C)(C)C)cc2)cc1 [compound 670]        0.79 fold
 7  NC(=O)N1c2ccccc2CCc2ccccc21 [compound 299]        0.47 fold
 8       Nc1nc(-c2ccccc2)cs1 [compound 1499]        0.61 fold
 9           CN(C)C(=S)SCC#N [compound 1793]        1.21 fold
10      COc1ccc(CC(=O)O)cc1OC [compound 629]        2.48 fold
11  O=NN(O)c1ccccc1 [Chemical #1783, Cupferron]        0.89 fold
12  CC(C=O)=CC=CC(C)=CC=CC=C(C)C=CC=C(C)C=CC1=C(C)CCCC1(C)C [compound 519]        2.76 fold
13      Nc1ccc(C=CC(=O)O)cc1 [compound 1234]        1.03 fold
14  N[C@@H](CCCCNC(=O)OCc1ccccc1)C(=O)O [compound 1747]        0.86 fold
15  CC(=O)n1ccnc1 [Chemical #58, 1-Acetylimidazole]        0.42 fold
16              O=C(O)C1CCC1 [compound 1804]        0.49 fold
17     CCn1c(=O)[nH]c2ccccc21 [compound 322]        1.12 fold

---

System: human growth hormone (532) promoter
ASSAY EXPLANATION: High-throughput luciferase reporter assay, human Growth Hormone promoter (Screen III)
Assay type: cell-based
STATED CONDITIONS: Screen III inhibitors; 532 cells; 6 hours
Item-by-item account of FOLD INHIBITION RELATIVE TO SOLVENT CONTROL, hGH
METRIC: FOLD INHIBITION RELATIVE TO SOLVENT CONTROL, hGH (fold)

                                   molecule                        system_tested  measured_result
0  O=C(O[C@H](C(=O)O)[C@H](OC(=O)c1ccccc1)C(=O)O)c1ccccc1  human growth hormone (532) promoter             4.00
1  O=S(=O)(O)c1ccc(-c2nnc(-c3ccnc(-c4nnc(-c5ccc(S(=O)(=O)O)cc5)c(-c5ccc(S(=O)(=O)O)cc5)n4)c3)nc2-c2ccc(S(=O)(=O)O)cc2)cc1  human growth hormone (532) promoter             5.00
2   O=C(O)CC1NC(=O)NC1=O (centres unmarked)  human growth hormone (532) promoter             3.57
3       Cc1cc(C)nc(NS(=O)(=O)c2ccc(N)cc2)n1  human growth hormone (532) promoter             4.76
4                           NC(=O)c1ccccc1O  human growth hormone (532) promoter             0.90

---

Tested on: human growth hormone (532) promoter
ASSAY EXPLANATION: High-throughput luciferase reporter assay, human Growth Hormone promoter (Screen III)
Assay type: cell-based
STATED CONDITIONS: Screen III activators; 532 cells; 6 hours
Where FOLD INDUCTION RELATIVE TO SOLVENT CONTROL, hGH equals or exceeds 7 fold, the correct label is yes; where it does not, the label is no.

>>> print(df.to_string())
                                   compound  category
0  O=C1CCCCC1Cl (stereo not shown) [compound 2148]        no
1  Nc1ncnc2c1nc(Br)n2[C@@H]1O[C@H](CO)[C@@H](O)[C@H]1O [compound 1583]        no
2            CC(=O)c1ccc[nH]1 [compound 70]       yes
3   Nc1ccc2c(c1)Cc1ccccc1-2 [compound 1316]        no
4      COc1ccc(CC(=O)O)cc1OC [compound 629]        no
5  Nc1ccc(S(=O)(=O)O)c2cccc(O)c12 [compound 1337]       yes
6                 NC1=NCCS1 [compound 1552]       yes

---

Test system: human growth hormone (532) promoter
ASSAY EXPLANATION: High-throughput luciferase reporter assay, human Growth Hormone promoter (Screen III)
Assay type: cell-based
STATED CONDITIONS: Screen III activators; 532 cells; 6 hours
METRIC: FOLD INDUCTION RELATIVE TO SOLVENT CONTROL, hGH (fold)

In [3]: df
Out[3]:
                     compound  units  measured_result
0  N=c1ccc2nc3ccc(N)cc3sc-2c1   fold             0.23
1                 Cc1cc(N)sn1   fold             0.57
2        Nc1ccc(C=CC(=O)O)cc1   fold             0.51
